FYI, the data here is from patent US10246453B2.

- study-system: UniProt:Q14524
- Sequence (Q14524 other isoform, or with tags, fused parts or gaps): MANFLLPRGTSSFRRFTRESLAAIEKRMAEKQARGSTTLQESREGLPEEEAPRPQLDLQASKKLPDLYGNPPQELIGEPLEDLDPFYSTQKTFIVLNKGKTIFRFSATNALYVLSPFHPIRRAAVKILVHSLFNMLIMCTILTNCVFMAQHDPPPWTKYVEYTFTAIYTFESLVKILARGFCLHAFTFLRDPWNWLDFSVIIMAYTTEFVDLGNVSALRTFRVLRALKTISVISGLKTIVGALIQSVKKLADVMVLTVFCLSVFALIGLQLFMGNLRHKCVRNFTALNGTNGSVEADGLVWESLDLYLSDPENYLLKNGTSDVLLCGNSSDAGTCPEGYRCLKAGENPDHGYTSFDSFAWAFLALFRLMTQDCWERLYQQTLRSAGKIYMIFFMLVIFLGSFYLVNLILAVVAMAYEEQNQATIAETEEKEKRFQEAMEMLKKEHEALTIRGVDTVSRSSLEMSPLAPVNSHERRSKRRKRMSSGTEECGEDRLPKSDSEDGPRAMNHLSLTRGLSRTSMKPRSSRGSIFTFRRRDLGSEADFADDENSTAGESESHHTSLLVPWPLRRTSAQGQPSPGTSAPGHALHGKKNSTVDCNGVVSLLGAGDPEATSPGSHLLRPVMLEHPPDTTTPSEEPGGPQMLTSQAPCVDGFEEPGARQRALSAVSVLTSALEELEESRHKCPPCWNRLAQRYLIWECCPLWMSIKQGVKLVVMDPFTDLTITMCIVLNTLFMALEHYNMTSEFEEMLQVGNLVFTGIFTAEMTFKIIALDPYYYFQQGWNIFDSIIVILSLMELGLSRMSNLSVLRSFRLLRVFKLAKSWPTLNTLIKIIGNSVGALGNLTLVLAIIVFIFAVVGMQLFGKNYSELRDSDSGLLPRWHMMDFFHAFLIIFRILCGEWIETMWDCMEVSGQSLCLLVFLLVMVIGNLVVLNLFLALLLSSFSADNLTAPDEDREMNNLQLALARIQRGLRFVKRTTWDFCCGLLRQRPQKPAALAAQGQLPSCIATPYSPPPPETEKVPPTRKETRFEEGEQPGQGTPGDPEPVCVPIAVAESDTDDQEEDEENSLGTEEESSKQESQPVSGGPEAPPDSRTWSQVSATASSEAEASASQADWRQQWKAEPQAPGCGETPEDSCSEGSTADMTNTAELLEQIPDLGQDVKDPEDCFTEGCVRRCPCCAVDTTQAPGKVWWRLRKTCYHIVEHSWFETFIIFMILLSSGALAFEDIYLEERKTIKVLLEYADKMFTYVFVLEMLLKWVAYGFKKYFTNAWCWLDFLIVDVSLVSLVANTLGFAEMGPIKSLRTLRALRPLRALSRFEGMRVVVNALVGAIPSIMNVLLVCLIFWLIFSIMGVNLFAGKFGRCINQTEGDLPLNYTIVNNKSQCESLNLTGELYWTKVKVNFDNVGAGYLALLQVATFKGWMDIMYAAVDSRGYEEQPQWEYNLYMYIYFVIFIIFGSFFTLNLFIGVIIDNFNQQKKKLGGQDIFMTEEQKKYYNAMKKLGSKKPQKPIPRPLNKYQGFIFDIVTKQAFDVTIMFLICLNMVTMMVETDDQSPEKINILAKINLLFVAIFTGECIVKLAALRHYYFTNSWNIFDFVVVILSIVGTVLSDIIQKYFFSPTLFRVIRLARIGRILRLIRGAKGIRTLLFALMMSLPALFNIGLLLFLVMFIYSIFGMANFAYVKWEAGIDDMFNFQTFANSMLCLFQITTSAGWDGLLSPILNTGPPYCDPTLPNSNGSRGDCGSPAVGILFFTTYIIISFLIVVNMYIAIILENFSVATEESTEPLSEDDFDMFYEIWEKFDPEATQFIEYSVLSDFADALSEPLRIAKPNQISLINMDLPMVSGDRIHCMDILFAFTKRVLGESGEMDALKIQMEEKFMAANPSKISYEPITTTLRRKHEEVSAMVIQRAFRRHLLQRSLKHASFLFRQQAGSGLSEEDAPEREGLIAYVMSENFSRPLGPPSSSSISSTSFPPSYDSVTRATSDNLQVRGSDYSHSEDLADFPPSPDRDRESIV
- protocol-description: Sodium Influx Assay (Flux), NaV1.5
- experimental-setup: read-out: Flux NaV1.5 IC50; Trex HEK293 cells, ANG2 dye; arithmetic mean
pIC50: −log10 of the molar value. Where a name gives a salt, the structure may show the parent alone.
Classification field: enter Yes for pIC50 values not below 5, No for values below it.

Below are worked cases with known answers.
In: Hello, I need to know if O=S(=O)(Nc1nccs1)c1ccc(OC2CCN(Cc3ccccn3)CC2)c(Cl)c1 [Example 65] has measured pIC50 not below 5. Thanks!
Out: No

In: Hello, I need to know if CN(c1cc(F)c(S(=O)(=O)Nc2cscn2)cc1Cl)[C@H]1CCN(Cc2c(F)cccc2Cl)C1 [Example 169, 2,2,2-trifluoroacetate] has measured pIC50 not below 5. Thanks!
Out: Yes

In: Hello, I need to know if CCN(c1cc(F)c(S(=O)(=O)Nc2cscn2)cc1Cl)[C@H]1CCN(Cc2ccccc2)C1 [Example 263] has measured pIC50 not below 5. Thanks!
Out: No

In: Hello, I need to know if Cc1cc(S(=O)(=O)Nc2cscn2)c(F)cc1N(C)[C@H]1CCN(Cc2cccc(O)c2)C1 [Example 114] has measured pIC50 not below 5. Thanks!
Out: No

In: Hello, I need to know if Cc1cc(S(=O)(=O)Nc2cscn2)c(F)cc1N(C)[C@H]1CCN(Cc2cscn2)C1 [Example 140] has measured pIC50 not below 5. Thanks!
Out: No

Next:
In: Hello, I need to know if O=S(=O)(Nc1cccc(F)n1)c1ccc(OC2CCN(Cc3ccccc3)CC2)c(Cl)c1 [Example 77, 2,2,2-trifluoroacetate] has measured pIC50 not below 5. Thanks!
Out: No

In: Hello, I need to know if O=S(=O)(Nc1ncns1)c1ccc(NC2CCN(Cc3ccccc3)C2)c(Cl)c1 (centres unmarked) [Example 26, trifluoroacetate] has measured pIC50 not below 5. Thanks!
Out: No

In: Hello, I need to know if Cc1cc(S(=O)(=O)Nc2cscn2)c(F)cc1N(C)[C@H]1CCN(Cc2nccs2)C1 [Example 136] has measured pIC50 not below 5. Thanks!
Out: No

In: Hello, I need to know if Cc1cccc(CN2CC[C@H](N(C)c3cc(F)c(S(=O)(=O)Nc4cscn4)c(F)c3Cl)C2)n1 [Example 267] has measured pIC50 not below 5. Thanks!
Out: No

In: Hello, I need to know if C[C@@H](c1ccccc1)N1CC[C@H](N(C)c2ccc(S(=O)(=O)Nc3cscn3)cc2Cl)C1 [Example 250, 2,2,2-trifluoroacetate] has measured pIC50 not below 5. Thanks!
Out: Yes

In: Hello, I need to know if COc1cccnc1CN1CC[C@H](N(C)c2cc(F)c(S(=O)(=O)Nc3cscn3)cc2C)C1 [Example 120, formate] has measured pIC50 not below 5. Thanks!
Out: No

In: Hello, I need to know if Cc1cc(S(=O)(=O)Nc2cscn2)ccc1N(C)[C@H]1CCN(Cc2cc(F)ccc2F)C1 [Example 285, 2,2,2-trifluoroacetate] has measured pIC50 not below 5. Thanks!
Out: Yes
